Just for reference, patent US11414431B2 is where these values come from.

Target: human TYK2 (JH2domain-pseudokinase) (Homo sapiens (Human), UniProt P29597)
Sequence (P29597 556-888): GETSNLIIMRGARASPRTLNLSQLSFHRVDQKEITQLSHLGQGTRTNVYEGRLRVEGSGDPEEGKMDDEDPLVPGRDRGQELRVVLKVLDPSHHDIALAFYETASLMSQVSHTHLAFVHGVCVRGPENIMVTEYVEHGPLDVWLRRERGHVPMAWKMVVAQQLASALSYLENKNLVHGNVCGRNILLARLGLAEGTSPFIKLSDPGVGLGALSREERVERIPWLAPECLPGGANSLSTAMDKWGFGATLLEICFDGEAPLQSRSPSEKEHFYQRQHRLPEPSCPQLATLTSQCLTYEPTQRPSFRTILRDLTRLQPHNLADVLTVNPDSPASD
Assay: TYK2 JH2 Domain Binding Assay (KINOMEscan)
Details: 11-point 3-fold dilution, top concentration 30,000 nM, duplicate; read-out: hTYK2_JH2_Binding (Kd; nM)
experimental.endpoint: Kd

compound_structure=O=C(N[C@H]1CCC1(F)F)c1cnn2c3c(c(-c4cn(C5COC5)c5ncccc45)nc12)OCCN3 result="< 0.2 nM"
compound_structure=CNc1cc(Nc2cccn(-c3ccccn3)c2=O)nc2c(C(=O)N[C@H]3C[C@H]3F)cnn12 result="< 0.2 nM"

Please tell me the measured Kd for "CNc1cc(Nc2cccn(C3CC(F)(F)C3)c2=O)nc2c(C(=O)N[C@@H]3CC[C@H]3OC)cnn12" ; system: human TYK2 (JH2domain-pseudokinase) (Homo sapiens (Human), UniProt P29597).
< 0.2 nM

Check human TYK2 (JH2domain-pseudokinase) (Homo sapiens (Human), UniProt P29597) data and give Kd for "CNc1cc(Nc2cccn([C@@H]3CC[C@@H]3O)c2=O)nc2c(C(=O)N[C@H]3CC[C@H](OC)C3)cnn12" .
> 10 nM

Report the value of Kd obtained on human TYK2 (JH2domain-pseudokinase) (Homo sapiens (Human), UniProt P29597) for "CC(C)n1cccc(Nc2nc3c(C(=O)N[C@@H]4CCC4(F)F)cnn3c3c2OCCN3)c1=O" .
< 0.2 nM

// fetch Kd; item: "CNc1cc(Nc2cccn([C@H]3C[C@H](OC)C3)c2=O)nc2c(C(=O)NC3CC3)cnn12" ; system: human TYK2 (JH2domain-pseudokinase) (Homo sapiens (Human), UniProt P29597)
< 0.2 nM

Name the value of Kd reported for "CNc1cc(-c2cnc3n([C@@H]4COC[C@H]4O)cccc2-3)nc2c(C(=O)NC3CC3)cnn12" when tested on human TYK2 (JH2domain-pseudokinase) (Homo sapiens (Human), UniProt P29597).
< 0.2 nM

Please report Kd with human TYK2 (JH2domain-pseudokinase) (Homo sapiens (Human), UniProt P29597) for item "CNc1cc(Nc2cccn(C3CC(F)(F)C3)c2=O)nc2c(C(=O)N[C@@H]3CC[C@@H](OC)C3)cnn12" .
1 to 10 nM

====

Biological target: human TYK2 (JH2domain-pseudokinase) (Homo sapiens (Human), UniProt P29597)
Test: TYK2 JH2 Domain Binding Assay (KINOMEscan)
Conditions: 11-point 3-fold dilution, top concentration 30,000 nM, duplicate; read-out: hTYK2_JH2_Binding (Kd; nM)
Method: Binding constants for compounds of the present invention against the JH2 domain were determined by the following protocol for a KINOMEscan® assay (DiscoveRx). […] The TYK2(JH2domain-pseudokinase) fusion protein was labeled with a chimeric double-stranded DNA tag containing the NFkB binding site (5′-[…]-3′) fused to an amplicon for qPCR readout, which was added directly to the expression extract (the final concentration of DNA-tag in the binding reaction is 0.1 nM). […]
experimental.endpoint: Kd

// fetch Kd for CNc1cc(Nc2cccn(C3CC(F)(F)C3)c2=O)nc2c(C(=O)N[C@H]3CCC[C@](C)(O)C3)cnn12 [Compound I-93] ; system: human TYK2 (JH2domain-pseudokinase) (Homo sapiens (Human), UniProt P29597)
0.2 to 1 nM

Specify the recorded Kd for O=C(N[C@@H]1C[C@@H]1F)c1cnn2c3c(c(Nc4cccc5ocnc45)nc12)OCCN3 [Compound I-752] , system: human TYK2 (JH2domain-pseudokinase) (Homo sapiens (Human), UniProt P29597).
< 0.2 nM

With human TYK2 (JH2domain-pseudokinase) (Homo sapiens (Human), UniProt P29597) as the test system, provide measured Kd for this compound: CNc1cc(Nc2cccn([C@H]3CC[C@H]3O)c2=O)nc2c(C(=O)N[C@@H]3CC[C@@H](OC)C3)cnn12 [Compound I-85]
1 to 10 nM

System human TYK2 (JH2domain-pseudokinase) (Homo sapiens (Human), UniProt P29597). Read-out Kd. Item CC(C)n1cccc(Nc2nc3c(C(=O)N[C@H]4CCC4(F)F)cnn3c3c2OCCN3)c1=O [Compound I-766] . Report value.
< 0.2 nM

With human TYK2 (JH2domain-pseudokinase) (Homo sapiens (Human), UniProt P29597) as the test system, provide measured Kd for this compound: CNc1cc(-c2cnc3n(CC(=O)N4CC5(COC5)C4)cccc2-3)nc2c(C(=O)N[C@H]3CC[C@@H]3OC)cnn12 [Compound I-1012]
< 0.2 nM

Provide human TYK2 (JH2domain-pseudokinase) (Homo sapiens (Human), UniProt P29597) Kd reading for CNc1cc(-c2cn([C@@H]3COC[C@H]3O)c3ncccc23)nc2c(C(=O)NC3CC3)cnn12 [Compound I-497] .
< 0.2 nM

Give Kd only, for CNc1cc(-c2cn([C@H]3COC[C@@H]3O)c3ncccc23)nc2c(C(=O)NC3CC3)cnn12 [Compound I-496] , using human TYK2 (JH2domain-pseudokinase) (Homo sapiens (Human), UniProt P29597) data.
< 0.2 nM

Give Kd for CNc1cc(Nc2cccn(C3CC(F)(F)C3)c2=O)nc2c(C(=O)N[C@H]3CC[C@@H]3OC)cnn12 [Compound I-47] tested on human TYK2 (JH2domain-pseudokinase) (Homo sapiens (Human), UniProt P29597).
> 10 nM

Report Kd from human TYK2 (JH2domain-pseudokinase) (Homo sapiens (Human), UniProt P29597) testing of CNc1cc(-c2cn([C@H]3COC[C@@H]3OC)c3ncccc23)nc2c(C(=O)N[C@@H]3C[C@@H]3F)cnn12 [Compound I-504]
< 0.2 nM
